Cited source for all entries: the supplement of paper PMC8728848

Target: GlcNAc(b1-2)Man(a1-3)[GlcNAc(b1-4)][GlcNAc(b1-2)Man(a1-6)]Man(b1-4)GlcNAc(b1-4)[Fuc(a1-6)]GlcNAc
Assay: glycan array binding signal (z-score within array); higher = stronger binding
Settings: glycan notation: IUPAC condensed, linker removed
Shown is part of a subset that was picked to be rich in the strongest signals.

binder	glycan array binding signal (z-score)
Pwp3 (Candida glabrata) (protein) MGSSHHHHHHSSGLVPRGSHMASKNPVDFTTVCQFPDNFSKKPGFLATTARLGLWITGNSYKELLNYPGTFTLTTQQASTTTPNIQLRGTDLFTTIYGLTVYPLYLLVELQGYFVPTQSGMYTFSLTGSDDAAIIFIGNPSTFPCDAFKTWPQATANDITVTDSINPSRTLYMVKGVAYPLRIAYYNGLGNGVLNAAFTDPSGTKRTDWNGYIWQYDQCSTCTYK	-0.195
